Listed here: items and their measured IC50.
tested on: A2780; experiment: CellTiter-Glo cytotoxicity assay, single agents (Stage 1); assay type: cell-based; conditions: Homo sapiens, CTG assay 72 h, relative IC50, read-out: IC50
Numeric answer plus unit only.

{"columns": ["compound", "studyTarget", "propertyName", "valueReported"],
 "data": [
  ["C[C@H](NP(=O)(OC[C@H]1O[C@@H](n2ccc(N)nc2=O)C(F)(F)[C@H]1O)Oc1ccccc1)C(=O)OCc1ccccc1 (some centres unmarked)", "A2780", "IC50", "0.016 µM"]
]}

[Q] Recorded IC50 of `Nc1ccn([C@@H]2O[C@H](CO)[C@@H](O)C2(F)F)c(=O)n1` , please.
[A] 0.01 µM

====

test: ProGem1 clinical study (NUC-1031 alone), plasma pharmacokinetics; format: in vivo, human; conditions: human, plasma; ProGem1 (n = 67), NUC-1031 as a single agent; read-out: Median Tmax, plasma NUC-1031
propertyName: Tmax
Note: a bare number is incomplete; add the unit.

[Q] // Tmax lookup, key: C[C@H](NP(=O)(OC[C@H]1O[C@@H](n2ccc(N)nc2=O)C(F)(F)[C@H]1O)Oc1ccccc1)C(=O)OCc1ccccc1 (stereo partly shown) [NUC-1031]
[A] 30 min

====

IC50 reference
system: HT1376; test: CellTiter-Glo cytotoxicity assay, single agents (Stage 1); type: cell-based; details: Homo sapiens, HT-1376, CTG assay 72 h, relative IC50, read-out: IC50

{"columns": ["molecule", "IC50"],
 "data": [
  ["C[C@H](NP(=O)(OC[C@H]1O[C@@H](n2ccc(N)nc2=O)C(F)(F)[C@H]1O)Oc1ccccc1)C(=O)OCc1ccccc1 (some centres unmarked) [NUC-1031]", "> 1.98 µM"]
]}

Please look at the following molecule next.
[Q] Returns the measured IC50 for the input molecule. Input: Nc1ccn([C@@H]2O[C@H](CO)[C@@H](O)C2(F)F)c(=O)n1 [Gemcitabine]
[A] > 1.98 µM

====

system: NCI-H1975; assay: CellTiter-Glo cytotoxicity assay, single agents (Stage 1); type: cell-based; details: CTG assay 72 h, absolute IC50, read-out: Ab IC50
propertyName: pIC50
Please express pIC50 as -log10 of the molar concentration.

[Q] Given the compound N.N.[Cl][Pt][Cl] [Cisplatin, cisplatin] , what is its reported pIC50?
[A] 4.16

====

experiment: ProGem1 clinical study (NUC-1031 alone), plasma pharmacokinetics; format: in vivo, human; details: human, plasma; ProGem1 (n = 67), NUC-1031 as a single agent; read-out: Mean terminal t1/2, plasma NUC-1031 (converted)
propertyName: half-life (min)
// units = min; emit number, no label

[Q] Fill in the blank: the reported half-life of C[C@H](NP(=O)(OC[C@H]1O[C@@H](n2ccc(N)nc2=O)C(F)(F)[C@H]1O)Oc1ccccc1)C(=O)OCc1ccccc1 (stereo partly shown) is ____.
[A] 54
